Study System: human CD33 Y340A (human, UniProt P20138 18-364)
Sequence (P20138 18-364 Y340A limits assumed): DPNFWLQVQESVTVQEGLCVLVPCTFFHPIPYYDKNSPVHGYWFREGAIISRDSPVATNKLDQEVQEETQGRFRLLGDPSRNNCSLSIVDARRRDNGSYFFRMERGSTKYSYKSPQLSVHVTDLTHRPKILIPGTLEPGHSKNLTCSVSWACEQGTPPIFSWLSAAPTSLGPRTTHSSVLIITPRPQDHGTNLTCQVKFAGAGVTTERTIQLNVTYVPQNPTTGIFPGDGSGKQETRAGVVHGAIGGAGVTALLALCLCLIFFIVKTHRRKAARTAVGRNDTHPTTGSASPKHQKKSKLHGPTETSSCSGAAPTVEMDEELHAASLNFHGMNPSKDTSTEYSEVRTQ
Assay Comment: flow cytometry, alanine scan
Metric: Mean % WT Binding

# query: Mean % WT Binding of entry Refmab #4 (antibody, V domains shown, The alanine scan used IgG or Fab) VH: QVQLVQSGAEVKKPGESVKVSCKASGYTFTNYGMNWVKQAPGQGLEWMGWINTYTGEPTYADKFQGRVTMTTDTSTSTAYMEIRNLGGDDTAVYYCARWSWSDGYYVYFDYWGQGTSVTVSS VL: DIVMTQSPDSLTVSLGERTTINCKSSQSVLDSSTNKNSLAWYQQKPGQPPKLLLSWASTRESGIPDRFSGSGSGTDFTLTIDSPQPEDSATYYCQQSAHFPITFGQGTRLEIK
112 % of WT
